molecular target: TYK2 (Homo sapiens); construct: JAK1 (aa 850-1154) and TYK2 (aa 871-1187) are expressed with an N-terminally fused GST-tag; GST (N); test: JAK kinase assay (HTRF, phosphorylation of synthetic peptide), TYK2; details: catalytic domain, ATP at Km (13 μM); read-out: TYK2 kinase inhibitory activity (EC50)
Sequence (P29597 871-1187): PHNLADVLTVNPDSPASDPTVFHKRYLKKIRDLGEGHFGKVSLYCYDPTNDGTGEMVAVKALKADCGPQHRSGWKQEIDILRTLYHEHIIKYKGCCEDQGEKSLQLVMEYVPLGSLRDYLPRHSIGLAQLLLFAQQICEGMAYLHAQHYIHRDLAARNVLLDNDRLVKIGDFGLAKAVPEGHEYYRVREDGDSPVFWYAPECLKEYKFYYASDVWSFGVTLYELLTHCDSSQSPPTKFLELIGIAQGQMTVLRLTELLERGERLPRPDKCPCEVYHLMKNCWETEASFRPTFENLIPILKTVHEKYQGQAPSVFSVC
measurement_kind: EC50

compound="CN(CC1CCCN(C(=O)CCC#N)C1)S(=O)(=O)N1CCN(c2ncnc3[nH]ccc23)CC12CC2 (centres unmarked)" endpoint_result="> 500 nM"
compound=O=S(=O)(N(CCc1ccccc1)CCn1cccn1)N1CCN(c2ncnc3[nH]ccc23)CC12CC2 endpoint_result="100 to 500 nM"
compound=CN(C)CCCN(C1CCC1)S(=O)(=O)N1CCN(c2ncnc3[nH]ccc23)CC12CC2 endpoint_result="> 500 nM"
compound="O=S(=O)(N(CCc1ccccc1)CC1CCCCO1)N1CCN(c2ncnc3[nH]ccc23)CC12CC2 (centres unmarked)" endpoint_result="> 500 nM"
compound=CCN(C1CCC1)S(=O)(=O)N1CCN(c2ncnc3[nH]ccc23)CC12CC2 endpoint_result="< 100 nM"
compound=O=S(=O)(NCCc1ccccc1)N1CCN(c2ncnc3[nH]ccc23)CC12CC2 endpoint_result="> 500 nM"
compound=CN(C(=O)C1CCC(F)(F)CC1)S(=O)(=O)N1CCN(c2ncnc3[nH]ccc23)CC12CC2 endpoint_result="100 to 500 nM"
compound=CC(C)CCN(C)S(=O)(=O)N1CCN(c2ncnc3[nH]ccc23)CC12CC2 endpoint_result="100 to 500 nM"
